B1: DnaJ homolog subfamily C member 2, residues 451 to 503; numbered along this chain, Q99543 (parent)
chain: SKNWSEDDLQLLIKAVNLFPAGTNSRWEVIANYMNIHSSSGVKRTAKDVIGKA

variants of: B1; experiment: abundance fitness (aPCA) (normalised: wild type 0, dead -1); higher = more abundant; growth selection in yeast, the domain comes from the species named; details: Homo sapiens
Record form. Attribute: abundance fitness. Fill in for each entry.
# output: bare number, no unit

I am curious: what abundance fitness value has been reported for `D8C` ? -0.732

Would you kindly repeat that for `G41F` ? 0.064

Would you kindly repeat that for `A21L` ? -0.079

Would you kindly repeat that for `T23D` ? -0.165

Would you kindly repeat that for `N24W` ? -0.279

Would you kindly repeat that for `P20V` ? -0.772

Would you kindly repeat that for `P20D` ? -0.13

Would you kindly repeat that for `W4E` ? -0.825

Would you kindly repeat that for `T23I` ? -0.226

Would you kindly repeat that for `M34W` ? -0.666

Would you kindly repeat that for `N24D` ? 0.008

Would you kindly repeat that for `A21Q` ? 0.049

Would you kindly repeat that for `E28D` ? -0.089

Would you kindly repeat that for `K14Q` ? -0.308

Would you kindly repeat that for `K2N` ? 0.076

Would you kindly repeat that for `K52A` ? -0.01

Would you kindly repeat that for `G51D` ? 0.063

Would you kindly repeat that for `Y33I` ? -1.02

Would you kindly repeat that for `D7N` ? -0.114

Would you kindly repeat that for `N24H` ? 0.118

Would you kindly repeat that for `E28C` ? -0.49

Would you kindly repeat that for `G51T` ? -0.065

Would you kindly repeat that for `K47R` ? -0.056

Would you kindly repeat that for `V29P` ? -0.696

Would you kindly repeat that for `L9E` ? 0.03

Would you kindly repeat that for `I50H` ? -0.146

Would you kindly repeat that for `N24S` ? -0.043

Would you kindly repeat that for `N17G` ? -0.082

Would you kindly repeat that for `I50Y` ? -0.006

Would you kindly repeat that for `V49R` ? -0.888

Would you kindly repeat that for `D7K` ? -0.04

Would you kindly repeat that for `F19K` ? -0.961

Would you kindly repeat that for `S25C` ? -0.04

Would you kindly repeat that for `S38I` ? -1.04

Would you kindly repeat that for `I30V` ? -0.019

Would you kindly repeat that for `I13E` ? -0.006

Would you kindly repeat that for `S1H` ? -0.348

Would you kindly repeat that for `S1V` ? -0.063

Would you kindly repeat that for `S40M` ? -0.536

Would you kindly repeat that for `Y33W` ? -0.073

Would you kindly repeat that for `K14D` ? -0.054

Would you kindly repeat that for `D7S` ? 0.042

Would you kindly repeat that for `Y33Q` ? -0.746

Would you kindly repeat that for `V49P` ? -1.18

Would you kindly repeat that for `A21W` ? -0.244

Would you kindly repeat that for `D48A` ? -0.262
